OUTCOME MEASURE: melting point (°C)

{"columns": ["TEST SMILES", "melting point, °C"],
 "data": [
  ["CC(=O)NCCNc1nc(Nc2cccc(C(=O)O)c2)ncc1C(F)(F)F", 282],
  ["CC(=O)NCCNc1nc(Nc2cccc(NC(C)=O)c2)ncc1C(F)(F)F", 222]
]}

###

TEST TARGET: CDK1/cyclinB1 (Homo sapiens)
Construct: made in house; host or cells: High Five insect cells (Trichoplusia ni), baculovirus coinfection
Sequence (P06493 whole entry): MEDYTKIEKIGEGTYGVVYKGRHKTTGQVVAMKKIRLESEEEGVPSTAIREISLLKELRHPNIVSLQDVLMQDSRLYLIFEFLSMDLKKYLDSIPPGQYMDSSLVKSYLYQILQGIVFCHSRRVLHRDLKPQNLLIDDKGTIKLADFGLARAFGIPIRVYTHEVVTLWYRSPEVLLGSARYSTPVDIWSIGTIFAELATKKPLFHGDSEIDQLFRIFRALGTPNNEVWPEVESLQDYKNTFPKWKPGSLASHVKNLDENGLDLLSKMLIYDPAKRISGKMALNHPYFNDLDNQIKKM
Sequence (P14635 whole entry partner): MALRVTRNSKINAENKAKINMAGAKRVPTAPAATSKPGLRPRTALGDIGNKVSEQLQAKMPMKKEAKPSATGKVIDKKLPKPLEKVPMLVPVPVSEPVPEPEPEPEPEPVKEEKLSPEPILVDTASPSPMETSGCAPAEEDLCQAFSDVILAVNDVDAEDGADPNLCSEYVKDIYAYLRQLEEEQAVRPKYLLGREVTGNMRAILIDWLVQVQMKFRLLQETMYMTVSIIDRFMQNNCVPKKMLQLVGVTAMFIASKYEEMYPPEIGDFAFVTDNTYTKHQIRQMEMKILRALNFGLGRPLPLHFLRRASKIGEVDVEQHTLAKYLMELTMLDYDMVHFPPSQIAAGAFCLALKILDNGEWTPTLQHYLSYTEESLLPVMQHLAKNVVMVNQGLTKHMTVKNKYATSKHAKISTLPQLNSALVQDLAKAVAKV
ASSAY REMARKS: Cyclin B1-CDK1 kinase inhibition test
Assay type: biochemical
DETAILS: CDK1 tests (Example 13); recombinant cyclin B1/CDK1, substrate histone H1; read-out: CDK1/cyclinB1 IC50 value
pIC50: −log10 of the molar value.
OUTCOME MEASURE: pIC50

Record excerpt, results attached:
{"columns": ["MOLECULE", "RECORDED MEASUREMENT"],
 "data": [
  ["NCCCCCNc1nc(Nc2cccc(Cl)c2)ncc1C(F)(F)F [Example 1(077)]", "> 7.00"],
  ["NCCc1ccccc1CCNc1nc(Nc2ccc(Cl)c(Cl)c2)ncc1C(F)(F)F [Example 1(349)]", "> 7.00"],
  ["O=C1CCCN1CCCNc1nc(Nc2cccc(Cl)c2)ncc1C(F)(F)F [Example 1(067)]", "> 7.00"],
  ["CC(=O)NCCNc1nc(Nc2ccc(Br)cc2)ncc1C(F)(F)F [Example 2(007)]", "> 7.00"],
  ["CC(=O)NCCNc1nc(Nc2ccc3c(cnn3C)c2)ncc1C(F)(F)F [Example 1(655)]", "> 7.00"]
]}

Could you share what pIC50 was measured for CCC(=O)NCCCNc1nc(Nc2ccc3cnn(C)c3c2)ncc1C(F)(F)F [Example 7(006)] , tested on CDK1/cyclinB1 (Homo sapiens)?
> 7.00

Could you share what pIC50 was measured for CC(=O)NCCNc1nc(Nc2cccc(Br)c2)ncc1C(F)(F)F [Example 2(012)] , tested on CDK1/cyclinB1 (Homo sapiens)?
> 7.00

Could you share what pIC50 was measured for Nc1c(Cl)cc(Nc2ncc([N+](=O)[O-])c(N3CCc4[nH]cnc4C3)n2)cc1Cl [Example 1(113)] , tested on CDK1/cyclinB1 (Homo sapiens)?
> 7.00

Could you share what pIC50 was measured for O=C(O)c1ccc(Nc2ncc(C(F)(F)F)c(NCCCN3CCCC3=O)n2)cc1 [Example 1(021)] , tested on CDK1/cyclinB1 (Homo sapiens)?
> 7.00
